Kindly supply the reported inhibition at 1 µM values for the records listed here.
- Experimental system: phospho p-38 alpha kinase (Homo sapiens)
- Construct: purchased Panvera
- Sequence (Q16539 whole entry): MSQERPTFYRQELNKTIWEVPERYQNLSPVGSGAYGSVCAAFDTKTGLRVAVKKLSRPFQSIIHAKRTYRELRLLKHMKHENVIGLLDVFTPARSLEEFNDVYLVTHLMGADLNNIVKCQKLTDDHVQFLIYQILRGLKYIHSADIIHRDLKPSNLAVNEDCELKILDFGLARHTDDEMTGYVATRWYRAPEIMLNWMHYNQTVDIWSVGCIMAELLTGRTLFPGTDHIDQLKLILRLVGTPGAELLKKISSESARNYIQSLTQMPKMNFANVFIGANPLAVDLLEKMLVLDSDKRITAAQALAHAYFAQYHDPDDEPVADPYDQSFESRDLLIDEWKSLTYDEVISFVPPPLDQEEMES
- Procedure details: P-38 alpha kinase assay (spectrophotometric, pyruvate kinase/lactate dehydrogenase coupled)
- Type: biochemical
- Cond: read-out: % Inhibition @ concentration, Table 3; at 1 uM

Consider the compound shown here: CC(C)(C)c1cc(NC(=O)Nc2ccc(F)cc2)n(-c2cccc(Cn3c(=O)[nH]n(-c4ccccc4)c3=O)c2)n1 What is its recorded inhibition at 1 µM?
25%

Consider the compound shown here: CCOC(=O)COc1ccc(-n2nc(C(C)(C)C)cc2NC(=O)Nc2ccc(Cl)cc2)cc1 What is its recorded inhibition at 1 µM?
11%

Consider the compound shown here: CC(C)c1cc(NC(=O)Nc2cccc3ccccc23)n(-c2cccc(C(C)(C)O)c2)n1 What is its recorded inhibition at 1 µM?
41%

Consider the compound shown here: CC(C)(C)c1cc(NC(=O)Nc2cccc3ccccc23)n(-c2cccc(OCCCN3CCS(=O)(=O)CC3)c2)n1 What is its recorded inhibition at 1 µM?
35%
